Test system: OVCAR-4 ovarian
method: NCI-60 one-dose screen, 48 h
measurement-conditions: 10 µM unless noted
This is part of a sample that, as a whole, favours compounds with a hit. Of some 83,000 tested, about 20% had one in any assay. The source made the active and inactive calls. The calls were made as follows: active = growth percent below 10; inactive = the rest.
API: response.call in True for active, False for inactive

In this assay, the call recorded for `O=C(Nc1ccc(-c2ccc3c(c2)NC(=O)/C3=C\c2ccc[nH]2)cc1)Nc1ccc(Cl)c(Cl)c1` was what?
False

In this assay, the call recorded for CC1=C(C(=O)Nc2ccccc2)C(c2cccc3ccccc23)n2c(nc3ccccc32)N1 (stereo not drawn) was what?
False

In this assay, the call recorded for `COc1ccc2[nH]c(O)c(N=Nc3nc(-c4ccc(Cl)cc4)cs3)c2c1` was what?
True

In this assay, the call recorded for `O=C(CSc1nnc(-c2ccc(-c3nc4ccccc4[nH]3)cc2)o1)Nc1ccc(Cl)cc1` was what?
False

In this assay, the call recorded for `CN1CCN(C(=O)Oc2cc3c(c4ccccc24)[C@H](CCl)CN3C(=O)c2cc3cc(OCCCN4CCC4)ccc3[nH]2)[C@@H]2CSSC[C@H]21` was what?
False

In this assay, the call recorded for `COc1cc(/C=C/C(=O)c2cnn(-c3cc(=O)[nH]c4ccc(C)cc34)c2C)cc(OC)c1OC` was what?
False

In this assay, the call recorded for `CN1CCc2c(sc3ncnc(N/N=C/c4cccc(Cl)c4Cl)c23)C1` was what?
True

In this assay, the call recorded for `CCCCCCCCc1ccc(C(=O)Nc2ccc(C)c(OP(=O)(O)O)c2)cc1` was what?
False

In this assay, the call recorded for `O=C(COc1ccc(/C=C2/C(=O)Nc3ccc(Cl)cc32)cc1)Nc1ccc(Br)cc1` was what?
True

In this assay, the call recorded for `COC(=O)CSC1=C(C)C(=O)C(OC)=C(OC)C1=O` was what?
False

In this assay, the call recorded for Oc1ccc(F)c(Nc2nc(SCCN3CCOCC3)nc3c2cnn3CC(Cl)c2ccc(Br)cc2)c1 (stereo not drawn) was what?
False

In this assay, the call recorded for `CC(=O)Nc1ccc(S(=O)(=O)Nc2ccc(-c3ccc4c(c3)NC(=O)/C4=C\c3ccc[nH]3)cc2)cc1` was what?
False

In this assay, the call recorded for `COc1cc(/C=C/C(=O)c2cnn(-c3cc(=O)[nH]c4ccc(Cl)cc34)c2C)cc(OC)c1OC` was what?
False

In this assay, the call recorded for `COc1ccc2nc(NC(=O)c3ccc(N(C)C)cc3)sc2c1` was what?
False

In this assay, the call recorded for `N#C/C(=C/c1ccc(Cl)cc1)c1nnc(NC(=O)c2ccc(-n3c(=O)[nH]c4ccccc4c3=O)cc2)s1` was what?
False

In this assay, the call recorded for `Cc1ccc(C(=O)Nc2cc(-n3cnc(F)c3)cc(C(F)(F)F)c2)cc1C#Cc1cnc2cccnn12` was what?
False

In this assay, the call recorded for `C[C@@H]1CN(c2ccc3ncc(C#Cc4cncc(C(=O)Nc5ccc(CN6CCN(C)CC6)c(C(F)(F)F)c5)c4)n3n2)C[C@@H](C)O1` was what?
True

In this assay, the call recorded for CC1=C(C(=O)OC(C)C)C(c2ccc(O)cc2)NC(=O)N1 (stereo not drawn) was what?
False

###

Would you kindly list growth for each of these compounds?
System: HCC-2998 colon
method: NCI-60 one-dose screen, 48 h (100 = growth as untreated, 0 = no growth, -100 = all killed)
measurement-conditions: 10 µM unless noted
The panel holds about 83,000 compounds, 20% with a hit somewhere; the sample as a whole holds those more often.
Enter your answer as a number in %; do not include the unit.

Supply growth value. Item: `O=C(N/N=C/c1ccoc1)c1[nH]c2ccc(Br)cc2c1-c1ccccc1`
-100

Supply growth value. Item: `C=CCSc1nnc(-c2ccc(-c3nc4ccc(Cl)cc4[nH]3)cc2)o1`
83.4

Supply growth value. Item: `COc1ccc(NC2=C(I)C(=O)C(C)=C(C)C2=O)cc1`
118

Supply growth value. Item: `COc1cc(/C=C/C(=O)c2cnn(-c3cc(=O)[nH]c4ccc(Cl)cc34)c2C)cc(OC)c1OC`
-93.5

Supply growth value. Item: `C#CCCCNCCNc1ccnc2cc(Cl)ccc12`
62

Supply growth value. Item: N#CC1=C(c2cccs2)Nc2c(c(-c3ccccc3)nn2-c2ccccc2)C12C(=O)Nc1ccc(Br)cc12 (stereo not given)
6.28

Supply growth value. Item: `CS(=O)(=O)c1ccc(-n2nc(C(=O)NCc3ccccc3)cc2-c2ccc(Cl)cc2)cc1`
99.4

Supply growth value. Item: COc1c(F)ccc(C(=O)Nc2ccc3nc(NC(=O)C4CCCN(S(=O)(=O)c5ccc(C(C)(C)C)cc5)C4)sc3c2)c1F (stereo not given)
84.8

Supply growth value. Item: `O=C(Nc1nc2ccccc2s1)Nc1ccccc1Cl`
97.3

Supply growth value. Item: `Cc1cccc(C)c1Nc1nnc(-c2c[nH]c3ccccc23)o1`
119
